# System: K4 kissing-loop RNA reporter
# experimental_details: apparent KD of K4 kissing-loop reporter; higher = weaker reporter binding
# protocol_conditions: Eterna round: R107; input ligand: FMN 200 uM
# label = true if apparent KD of K4 kissing-loop reporter >= 300 nM else false

Exam item: decide whether the reported apparent KD of K4 kissing-loop reporter for AGUCCACUCUAAAGAGUGGACCUAAGGGAUACCAGUGAUGUUGGUCACCCUUGGCAGCCCACUGUCAUCGAUAAAGAUGGCAGCA is at least 300 nM.
false

Exam item: decide whether the reported apparent KD of K4 kissing-loop reporter for UGGAGUUGACGAAAAGUCAACUCCUGAGAUACCAGUGACGAAAGUCACCCUUGGCAGCUCACUGGCAGUGAUGUUGCUAUAUAAA [KL-SSTheo-A3] is at least 300 nM.
false

Exam item: decide whether the reported apparent KD of K4 kissing-loop reporter for GGCACUUUUGGUAGAAACCAUCUACCUCUAUAGGAUAUGCCGAAAGGCAGAAGGAUAGACCUACAGAGUGAUGUUCUGCGUGCCU is at least 300 nM.
true

Exam item: decide whether the reported apparent KD of K4 kissing-loop reporter for UUUGUAUAGGGAAGGAGCGUGAAUGAUAAUGAAUAUAGUGAUGUUAUAUAUAAGAAAGAAUCACAGGUAGGUCGCCCGGAUGAGU [SSArgB.L] is at least 300 nM.
true

Exam item: decide whether the reported apparent KD of K4 kissing-loop reporter for UAGGCCGCAUACAUUAGAUAAGGUACCGAUACCAGCCUCGCACCAGGCCCUUGGCAGCGGCAUCAAAUGGGUAGUGAUGUUACCU [theeternabot_exclusion_KL_Theo_A_20] is at least 300 nM.
false

Exam item: decide whether the reported apparent KD of K4 kissing-loop reporter for GGAUAGGACAGAGGAUAUGGGCUAGGCAAGAAUAACUUGUCUAGCAAAUCCAUGAGGAGUGAUGUUCCAGAAGGCUGUCCUAUCG [FmnBX 1 - #SwitchBubble #StraticStem #DoubleMagnetSystem] is at least 300 nM.
true

Exam item: decide whether the reported apparent KD of K4 kissing-loop reporter for CAUACGCAUGGAGGAUAUGAGAUUUCUCAUGUCAUUUAAUAUUCUCAGUGAUGUUGAGAAUUUGGCUCAGAAGGCCAUGUGUAUG [Ex FMN B 20] is at least 300 nM.
false

Exam item: decide whether the reported apparent KD of K4 kissing-loop reporter for CGCAUACCUGCGCUAGUAGUGAUGUUACAGCGAGGACCGGUACGGCCGCCACUCGUGACGGUCGCAAAACGCGUUGCAGAACACU [theeternabot_exclusion_KL_Trp_A_32] is at least 300 nM.
true

Exam item: decide whether the reported apparent KD of K4 kissing-loop reporter for AUUUUUUUGUCAGGAUAUUAGUGUGCGUUUGGUUUGUUAGUGAUGUUGAUAUUUGGUUUAUGUAUUUAAGAAGGGAUUUAGCGGU [dhbbtemullin] is at least 300 nM.
true

Exam item: decide whether the reported apparent KD of K4 kissing-loop reporter for UACGCUUACUUGCGCGGUCCGAUUAACGAUACCAGCGAAGAAGCCCGCCCUUGGCAGCGUUAUAGAGUGAUGUUCACGGAGAUUA [theeternabot_sameState_KL_Theo_A_12] is at least 300 nM.
true

***
Exam item: decide whether the reported apparent KD of K4 kissing-loop reporter for AUCCAUAGUGAUGUUGUGAGCGGAGGCACCAAGGAUAUUGCCAGCCCAAGAAGGUGGGUCCCACACACCAGGCAUACAAGUCCGG [theeternabot_exclusion_KL_FMN_A_43] is at least 300 nM.
true

Exam item: decide whether the reported apparent KD of K4 kissing-loop reporter for GGAUAGGAUAGAGGAUAUGGUAGUGAUGUUACCAAACUGGUUAAACAUGUCAGAAAACUGGCAUGACCAGAAGGCUGUCCUAUCG [FmnBX 27 U9] is at least 300 nM.
false

Exam item: decide whether the reported apparent KD of K4 kissing-loop reporter for UUUAUAUUCUGAGGAUAUCGUAUUAAUGAAGUGAUGUUUCAGUAUAUUCUAAUUAUAUAUAAUUUUCGAGAAGGCAGUAUUAUUU [JR_Nu3_SSFMNB_Sub028] is at least 300 nM.
false

Exam item: decide whether the reported apparent KD of K4 kissing-loop reporter for AAACUACGUGACGAUACCAGCUUACUCGGCAAGCCAGUGAUGUUGGUGAAAAGGAGUCAAAGCCCUUGGCAGCGUCGAAGGUUUG [Usandiat] is at least 300 nM.
false

Exam item: decide whether the reported apparent KD of K4 kissing-loop reporter for UCGCGUAAUGGAAGGAGCGGUGCCAGUGAUGUUGGAUACUGCGUGUAUUAGGUCGGAGCGCACCAGGUAGGUCGCCAUUUGGUGG [Tigedies] is at least 300 nM.
true

Exam item: decide whether the reported apparent KD of K4 kissing-loop reporter for UUGGCAGUGAUGUUGCCAGACAUCACCGAAGGAGCGGGCGAAAGCCCAGGUAGGUCGCGGUAGCGGAGUGAUUCUCCGCGAGGGC [Same State Arginine A GF 23] is at least 300 nM.
true

Exam item: decide whether the reported apparent KD of K4 kissing-loop reporter for AAGGGCGGGACUUUCUCGCCGGAUAGAGAUACCAGCCCAGCAAUGGGCCCUUGGCAGCUCACUGACCUCAGUGAUGUUGAGGUUC [Quintege] is at least 300 nM.
true

Exam item: decide whether the reported apparent KD of K4 kissing-loop reporter for AAGCGUGUCGCGGCCGCCACUCCUGAGUGAUGUUCAGAAAGCAGUUUUUUAUUCAGGAAAAGCGCGAGGACCGGGCGACGCCGAU [theeternabot_sameState_KL_Trp_B_1] is at least 300 nM.
true

Exam item: decide whether the reported apparent KD of K4 kissing-loop reporter for AAAUUUAAUAUAUUUAAUUAAUUAAGUGAUACCAGACAUUAAUAAGUCCCUUGGCAGCACAAUGCAGUGAUGUUGCUUAUAAUAA [JR_SSTheophyA_Sub009] is at least 300 nM.
false

Exam item: decide whether the reported apparent KD of K4 kissing-loop reporter for AGGUACAAAAGUACCGCUAGAUCCACGGAAGGAGCGCCCGAAAGGGCAGGUAGGUCGCCGGGCAGUGAUGUUGCCGGAUCUAGCA [Omei KL Arginine A SS A v6] is at least 300 nM.
false

Exam item: decide whether the reported apparent KD of K4 kissing-loop reporter for CAUACGCAUGGAGGAUAUGAGAUUACUCGUAUCAUUUAAUAUUCUCAGUGAUGUUGAGAUUUGGGCUCAGAAGGCCAUGUGUAUG [Ex FMN B 16] is at least 300 nM.
true

Exam item: decide whether the reported apparent KD of K4 kissing-loop reporter for GCGGGCCAGACGGCCGCCACUCCGGGCAGUGAUGUUGCGAAUCUUCUACUAGAGUGAUGUUCUACGAGGACCGGGUCGGAACGCG [Exclusion Tryptophan B Gf 14] is at least 300 nM.
true

###

# System: K4 kissing-loop RNA reporter;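 also: bound reporter read as fluorescence of individual clusters on recovered sequencing chips by microscopy, with normalized cluster intensities fitted with a binding model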
# experimental_details: apparent KD of K4 kissing-loop reporter; higher = weaker reporter binding
# protocol_conditions: Eterna round: R107; input ligand: FMN 200 uM
attribute_measured: apparent KD of K4 kissing-loop reporter
Kindly format the answer as number then unit.

Examples with their reported apparent KD of K4 kissing-loop reporter follow.
If you can, please state the reported apparent KD of K4 kissing-loop reporter value of GGAUGGUAGGCGGCCGCCACUAAAUGUGAACACAUACAAGCCAGUGAUGUUGGUAUGAUGGACAAUAGGACCGGGCCUAGAUAGA [Exclusion - Tryptophan B (Freestyle 7)] .
595 nM

If you can, please state the reported apparent KD of K4 kissing-loop reporter value of AUUCGUUUAUGUGAUACCAGACUUUGCAGUGAUGUUGCUUUAAUUAAAGAUGUUUAGUUUGUCCCUUGGCAGCACUAUUUAUUUA [JR_SSTheophyB_Sub001] .
54 nM

If you can, please state the reported apparent KD of K4 kissing-loop reporter value of UCCACGCUUAGAGGAUAUCGGAUUAGAGUGAUGUUCUAAAGACGCCCAGUGAUGUUGGAUGGUAUACGAGAAGGCUGUGGCGUGU [Same State FMN B GF5] .
219 nM

If you can, please state the reported apparent KD of K4 kissing-loop reporter value of ACGUGCACGAGUGAUGUUUGAAAAUCUGAAGGAGCGGGCGAAAGCCCAGGUAGGUCGCAGAAUAGCACGAGCCACGAAAGUGGCA .
202 nM

If you can, please state the reported apparent KD of K4 kissing-loop reporter value of GAUUAAUAAGAGGAUACCAGUACUAAUAAAGUACAUUAAUAGUAGAGUGAUGUUCUAUAGUACCCUUGGCAGCUUAGAGUAAGUU [#09 K4 Theophylline B Exclusion] .
131 nM

If you can, please state the reported apparent KD of K4 kissing-loop reporter value of UGAUAGGACAGAAGGAGCGGAGCUGGUCAAAGACCAGCAAUAACGUUGAAAGGAGUGAUGUUCCAGGUAGGUCGCUGUCCUAUCU [ArgBX 26 #SwitchBubble #StaticStem] .
121 nM

***
If you can, please state the reported apparent KD of K4 kissing-loop reporter value of GGAGCAGUGAUGUUGCUUGUAAUGCAUUCAGAGGAUAUUCGUUUGGGAAGAAGGCUGAAUCGUUCUUCGAGUGAUGUUCGAGGAU [Same State FMN A GF 16] .
154 nM

If you can, please state the reported apparent KD of K4 kissing-loop reporter value of UAGUCCUAGUGAUCCUUAUCAAGUGGUGGGCGAGGACCGGUACGGCCGCCACUCGACUAUGCAGUGAUGUUGUAAUCCGGACAAU [Exclusion - Tryptophan A (Freestyle 12)] .
669 nM

If you can, please state the reported apparent KD of K4 kissing-loop reporter value of UGUAUGUGAUUUGAUACCAGACCAGCUGGUGGAUCACGAGUGAUGUUCGUGUUGGUUUGGGUCCCUUGGCAGCAAAUCGCAUACU [KL-SSTheoB13] .
218 nM

If you can, please state the reported apparent KD of K4 kissing-loop reporter value of AGCUUGGGUUCGGCCGCCACUCCACCCUUAGAAGUGAUGUUUCUCAUGCAUACGCGUCGUCAGAUGAGGACCGGGAAUGUAGUUG [theeternabot_exclusion_KL_Trp_B_24] .
209 nM

If you can, please state the reported apparent KD of K4 kissing-loop reporter value of AGUACAAUGGCGGCCGCCACUCAAUGGGCGACCGAAAGGUCGCAUCACUCAGUGAUGUUGAGUGAGAGGACCGGGCCUUUGUACA [Omei KL Tryp B SS B v8] .
733 nM
